Recorded pKi values for a group of compounds are listed next.
Molecular target: α2A adrenergic receptor (α2AAR) (Mus musculus)
Sequence (Q01338 1-465): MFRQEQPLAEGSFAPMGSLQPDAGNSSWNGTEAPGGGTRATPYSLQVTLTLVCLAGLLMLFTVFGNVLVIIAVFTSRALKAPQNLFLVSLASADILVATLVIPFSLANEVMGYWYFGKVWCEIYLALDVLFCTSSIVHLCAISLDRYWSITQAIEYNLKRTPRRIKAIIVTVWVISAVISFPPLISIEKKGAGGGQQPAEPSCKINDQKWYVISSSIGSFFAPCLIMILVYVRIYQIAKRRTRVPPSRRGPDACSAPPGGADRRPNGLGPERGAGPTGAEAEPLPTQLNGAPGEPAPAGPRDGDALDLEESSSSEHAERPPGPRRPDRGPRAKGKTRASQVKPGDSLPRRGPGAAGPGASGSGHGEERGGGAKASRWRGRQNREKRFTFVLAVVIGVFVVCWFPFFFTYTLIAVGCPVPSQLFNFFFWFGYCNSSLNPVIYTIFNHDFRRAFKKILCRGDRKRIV
By convention, pKi is the negative base-10 log of a molar concentration.

# input Query (compound): CN(C)CCCN1c2ccccc2CCc2ccccc21 ; field requested: pKi
# output 5.29

New cases:
# input Please look up its pKi: CN(C)CCC[C@@]1(c2ccc(F)cc2)OCc2cc(C#N)ccc21
# output 4.10

# input Value lookup for pKi; key = CN(C)CCC=C1c2ccccc2CCc2ccccc21
# output 6.48
